In this section we review reported melting point values for a set of molecules.

Known melting point results, listed for orientation:
{"molecule": "N#Cc1ccc(C(=O)Nc2cccc(C(=O)O)c2)cc1", "melting point": "267 °C"}
{"molecule": "O=C(NC[C@H]1CN(c2cc(F)c(N3CCC(n4nccn4)CC3)c(F)c2)C(=O)O1)C(F)F", "melting point": "254 to 255 °C"}
{"molecule": "NCCn1nc2c3c(c(Cl)ccc31)C(=O)c1c(OCc3ccccc3)ccc(OCc3ccccc3)c1-2", "melting point": "176 to 178 °C"}
{"molecule": "N=c1[nH]c2ccc(Cl)cc2c2nc(-c3ccc(Br)o3)nn12", "melting point": "282 to 283 °C"}
{"molecule": "O=c1[nH]c2cc(Cl)cc(Cl)c2oc1=O", "melting point": "312 °C"}
{"molecule": "O=c1[nH]c(=O)n(CCCCBr)c2ccccc12", "melting point": "152 to 153 °C"}
{"molecule": "Clc1ccc([C@@]2(Cn3ccnc3)OC[C@H](COc3ccc4c(c3)CCN(Cc3ccc(-c5ccccc5)cc3)C4)O2)c(Cl)c1 (racemic)", "melting point": "103 to 105 °C"}
{"molecule": "O=C(O)c1ccc(CNc2nc(-c3cccnc3)nc3ccccc23)cc1", "melting point": "285 to 294 °C"}

Query string: Specify melting point for CC(=O)C1CC2CCC1(COC(=O)Oc1ccccc1)CC2 (centres undefined) and stop.
Result string: 74 to 75 °C

* * *

In this section we review reported melting point values for a set of compounds.

Known melting point results, listed for orientation:
{"compound": "CS(=O)(=O)c1nccn1CC(=O)Cl", "melting point": "132 to 133 °C"}
{"compound": "CC(C)(O)C(=O)Nc1nc(-c2ccco2)c(C(=O)c2ccccc2)s1", "melting point": "153 to 154 °C"}
{"compound": "Cc1c(N2CCNC(C)C2)c(F)cc2c(=O)c(C(=O)O)cn(C3CC3)c12 (configuration not stated)", "melting point": "206 to 208 °C"}
{"compound": "COc1cccc(C2NC(=O)N(C(C)C)c3cc(C)ccc32)c1 (configuration not stated)", "melting point": "167 to 169 °C"}
{"compound": "COc1cccc(Oc2cc(-c3ccc(C(F)(F)F)cc3)ccn2)c1", "melting point": "77.5 to 79.6 °C"}

Query string: Specify melting point for CC(=O)OCc1c(Br)cccc1N1Cc2cc(C(C)(C)C)sc2C1=O and stop.
Result string: 172 to 173 °C

Query string: Specify melting point for N#Cc1cnc2cnc(F)cc2c1O and stop.
Result string: 214 to 215 °C

* * *

In this section we review reported melting point values for a set of compounds.

{"compound": "CCCN1CCCN(c2c(N3CCCN(CCC)CC3)c(=O)c2=O)CC1", "result": "90 to 92 °C"}
{"compound": "CC(C)(C)c1cc(CCc2ccccc2NC(=O)NCC(C)(C)c2cccc(F)c2)cc(C(C)(C)C)c1O", "result": "165 to 166 °C"}
{"compound": "O=C(O)[C@H]1O[C@H](c2ccccc2Cl)c2cc(Cl)ccc2N(Cc2ccccc2)C1=O (relative stereo)", "result": "177 °C"}
{"compound": "CCn1c(C(C#N)c2cc(C)cc(C#N)c2)c(C(C)C)c(=O)[nH]c1=O (stereo not given)", "result": "260 to 261 °C"}

Then there is this compound:
Query string: Specify melting point for Cc1cccc(-c2cn(C)cc(-c3cccc(C(F)(F)F)c3)c2=O)c1 and stop.
Result string: 155 to 157 °C
